Values compiled from ChEMBL document CHEMBL3217587.

I'd appreciate it if you could supply MIC values for the items below.
- System: Staphylococcus aureus
- Experiment description: Antimicrobial activity against methicillin-resistant Staphylococcus aureus ATCC BAA-1753 after 16 hrs by broth microdilution method
- Format: functional
- Measurement context: ATCC BAA-1753, 16 h
Enter your answer as a number in µg/mL; do not include the unit.

Query CCCCCc1ccc(C(=O)Nc2ccc3c(c2)nc(N)n3CCCC)cc1.Cl yields MIC of 8

Query CCCCCc1ccc(C(=O)Nc2ccc3c(c2)nc(N)n3CCc2ccccc2OC)cc1.Cl yields MIC of 16

----------
- Tested on: Staphylococcus aureus
- Experiment description: Antimicrobial activity against methicillin-resistant Staphylococcus aureus ATCC BAA-1685 after 16 hrs by broth microdilution method
- Format: functional
- Measurement context: ATCC BAA-1685, 16 h
I'd appreciate it if you could supply MIC values for the items below.

Query CCCCCc1ccc(C(=O)Nc2ccc3c(c2)nc(N)n3CCc2cccc3ccccc23)cc1.Cl yields MIC of > 64 µg/mL

Query CCCCCc1ccc(C(=O)Nc2ccc3c(c2)nc(N)n3CCc2nc3ccccc3[nH]2)cc1.Cl yields MIC of > 64 µg/mL

Query CCCCCCCCCCCCn1c(N)nc2cc(NC(=O)c3ccc(CCCCC)cc3)ccc21.Cl yields MIC of > 64 µg/mL

----------
- Tested on: Staphylococcus aureus
- Experiment description: Antimicrobial activity against methicillin-resistant Staphylococcus aureus ATCC BAA-1556 after 16 hrs by broth microdilution method
- Assay type: functional
- Measurement context: ATCC BAA-1556, 16 h
Recorded metric: MIC (µg/mL)
Enter your answer as a number in µg/mL; do not include the unit.

Query CCCCCc1ccc(C(=O)Nc2ccc3c(c2)nc(N)n3CCc2ccccc2)cc1.Cl yields MIC of 8

Query CCCCCc1ccc(C(=O)Nc2ccc3c(c2)nc(N)n3CCCc2ccccc2)cc1.Cl yields MIC of 16

Query CCCCCc1ccc(C(=O)Nc2ccc3c(c2)nc(N)n3Cc2ccc(OC)cc2)cc1.Cl yields MIC of 16

Query CCCCCCn1c(N)nc2cc(NC(=O)c3ccc(CCCCC)cc3)ccc21.Cl yields MIC of 16

Query CCCCCc1ccc(C(=O)Nc2ccc3c(c2)nc(N)n3CCCCc2ccccc2)cc1.Cl yields MIC of 16

----------
- System: Staphylococcus aureus
- Experiment description: Toxicity in methicillin-resistant Staphylococcus aureus ATCC BAA-44 assessed as inhibition of planktonic cell growth at IC50 after 2 to 24 hrs by spectrophotometry
- Format: organism-based
Recorded metric: Activity

CCCCCc1ccc(C(=O)Nc2ccc3c(c2)nc(N)n3CCc2ccccc2)cc1.Cl
Non-toxic
CCCCCc1ccc(C(=O)Nc2ccc3c(c2)nc(N)n3CCc2ccc3ccccc3c2)cc1.Cl
Toxic
CCCCCc1ccc(C(=O)Nc2ccc3c(c2)nc(N)n3CCCC)cc1.Cl
Non-toxic

----------
- Tested on: Staphylococcus aureus
- Experiment description: Antimicrobial activity against methicillin-susceptible Staphylococcus aureus ATCC 29213 after 16 hrs by broth microdilution method
- Type: functional
- Measurement context: ATCC 29213, 16 h
Recorded metric: MIC (µg/mL)
Enter your answer as a number in µg/mL; do not include the unit.

Query CCCCCc1ccc(C(=O)Nc2ccc3c(c2)nc(N)n3CCc2ccc3ccccc3c2)cc1.Cl yields MIC of 64

Query CCCCCc1ccc(C(=O)Nc2ccc3c(c2)nc(N)n3CCc2c[nH]c3ccccc23)cc1.Cl yields MIC of 16

Query CCCCCc1ccc(C(=O)Nc2ccc3c(c2)nc(N)n3CCc2ccccn2)cc1.Cl yields MIC of 32

Query CCCCCc1ccc(C(=O)Nc2ccc3c(c2)nc(N)n3CCc2ccccc2)cc1.Cl yields MIC of 8

Query CCCCCc1ccc(C(=O)Nc2ccc3c(c2)nc(N)n3CCCC)cc1.Cl yields MIC of 8

Query CCCCCCn1c(N)nc2cc(NC(=O)c3ccc(CCCCC)cc3)ccc21.Cl yields MIC of 16

Query CCCCCc1ccc(C(=O)Nc2ccc3c(c2)nc(N)n3CCc2ccc(OC)cc2)cc1.Cl yields MIC of 16

Query CCCCCc1ccc(C(=O)Nc2ccc3c(c2)nc(N)n3CCCCc2c[nH]c3ccccc23)cc1.Cl yields MIC of 64

Query CCCCCc1ccc(C(=O)Nc2ccc3c(c2)nc(N)n3-c2ccc(CCCCC)cc2)cc1.Cl yields MIC of 64

Query CCCCCc1ccc(C(=O)Nc2ccc3c(c2)nc(N)n3CCc2ccccc2OC)cc1.Cl yields MIC of 16
